assay: Intra-articular acute toxicity study in Crl:CD(SD) rat (toxicokinetics); details: male, Crl:CD(SD), rat, plasma, 12 ug
measure name: Cmax (ng/mL)
# output: bare number, implied unit ng/mL

Qu. Endpoint output: Cmax of `COCCc1ccc(NC(=O)c2ccccc2NS(C)(=O)=O)cc1` . Value?
Ans. 27.8

====

assay: Final dose PK in the canine osteoarthritis study; assay type: in vivo, Beagle dogs; conditions: female, beagle, dog, plasma, 0.035 mg/knee, female Beagles, 35 μg IA weekly, after 6th dose, plasma; Mean; read-out: Cmax
measure name: Cmax

Qu. Endpoint output: Cmax of COCCc1ccc(NC(=O)c2ccccc2NS(C)(=O)=O)cc1 [Compound A] . Value?
Ans. 1.94 ng/mL

====

assay: Intra-articular acute toxicity study in the Beagle dog (toxicokinetics); details: male, beagle, dog, plasma, 200 μg/knee, Cmax, male dogs, single IA 200 μg/knee, individual animals 45M, 46M
measure name: Cmax (ng/mL)
# output: bare number, implied unit ng/mL

Qu. Endpoint output: Cmax of `COCCc1ccc(NC(=O)c2ccccc2NS(C)(=O)=O)cc1` . Value?
Ans. 2.81

====

assay: Intra-articular acute toxicity study in the Beagle dog (toxicokinetics); settings: male, beagle, dog, plasma, 35 μg/knee, Cmax, male dogs, single IA 35 μg/knee, individual animals 41M, 42M
measure name: Cmax (ng/mL)
# output: bare number, implied unit ng/mL

Qu. Endpoint output: Cmax of `COCCc1ccc(NC(=O)c2ccccc2NS(C)(=O)=O)cc1` . Value?
Ans. 2.14

====

test: in vivo; conditions: female, beagle, dog, iv
measure name: Vd

Qu. Endpoint output: Vd of `COCCc1ccc(NC(=O)c2ccccc2NS(C)(=O)=O)cc1` . Value?
Ans. 0.534 to 0.855 L/kg

====

experiment: Intravenous acute toxicity study in Crl:CD(SD) rat (toxicokinetics); format: in vivo; settings: both sexes, Crl:CD(SD), rat, plasma; single IV administration, range over groups
measure name: half-life

Qu. Endpoint output: half-life of COCCc1ccc(NC(=O)c2ccccc2NS(C)(=O)=O)cc1 [Compound A] . Value?
Ans. 18 to 36 min

====

test: Intravenous acute toxicity study in Crl:CD(SD) rat (toxicokinetics); type: in vivo; conditions: Crl:CD(SD), rat, plasma; male rats, single IV 1 mg/kg, mean
measure name: Cmax (ng/mL)
# output: bare number, implied unit ng/mL

Qu. Endpoint output: Cmax of `COCCc1ccc(NC(=O)c2ccccc2NS(C)(=O)=O)cc1` . Value?
Ans. 11200

====

test: Intra-articular acute toxicity study in the Beagle dog (toxicokinetics); settings: male, beagle, dog, plasma, 100 μg/knee, AUC0-t, male dogs, single IA 100 μg/knee, individual animals 43M, 44M
measure name: AUC(0-t) (ng·h/mL)
# output: bare number, implied unit ng·h/mL

Qu. Endpoint output: AUC(0-t) of `COCCc1ccc(NC(=O)c2ccccc2NS(C)(=O)=O)cc1` . Value?
Ans. 13

====

test: in vivo; settings: male, beagle, dog, iv, 0.125 mg/kg, Cmax
measure name: Cmax
Give the figure together with its unit, number first.

Qu. Endpoint output: Cmax of COCCc1ccc(NC(=O)c2ccccc2NS(C)(=O)=O)cc1 [Compound A] . Value?
Ans. 0.308 µg/mL

====

assay: in vivo; parameters: species or system Crl:CD(SD) rat; details: male, Crl:CD(SD), rat, iv, 0.75 mg/kg, AUC0-t
measure name: AUC(0-t) (ng·h/mL)
# output: bare number, implied unit ng·h/mL

Qu. Endpoint output: AUC(0-t) of `COCCc1ccc(NC(=O)c2ccccc2NS(C)(=O)=O)cc1` . Value?
Ans. 3120

====

assay: in vivo; details: male, beagle, dog, iv, 1.25 mg/kg, Cmax
measure name: Cmax (ng/mL)
# output: bare number, implied unit ng/mL

Qu. Endpoint output: Cmax of `COCCc1ccc(NC(=O)c2ccccc2NS(C)(=O)=O)cc1` . Value?
Ans. 2580

====

assay: Intravenous acute toxicity study in Crl:CD(SD) rat (toxicokinetics); assay type: in vivo; details: Crl:CD(SD), rat, plasma; male rats, single IV 2.4 mg/kg, mean
measure name: AUC(0-t) (ng·h/mL)
# output: bare number, implied unit ng·h/mL

Qu. Endpoint output: AUC(0-t) of COCCc1ccc(NC(=O)c2ccccc2NS(C)(=O)=O)cc1 [Compound A] . Value?
Ans. 4510

====

assay: in vivo; conditions: male, Crl:CD(SD), rat, 70 ug/kg, Cmax
measure name: Cmax (ng/mL)
# output: bare number, implied unit ng/mL

Qu. Endpoint output: Cmax of `COCCc1ccc(NC(=O)c2ccccc2NS(C)(=O)=O)cc1` . Value?
Ans. 8.24

====

experiment: in vivo; set-up: species or system Crl:CD(SD) rat; conditions: male, Crl:CD(SD), rat, iv, 2.5 mg/kg, t1/2
measure name: half-life (min)
# output: bare number, implied unit min

Qu. Endpoint output: half-life of COCCc1ccc(NC(=O)c2ccccc2NS(C)(=O)=O)cc1 [Compound A] . Value?
Ans. 38.4

====

assay: in vivo; settings: male, Crl:CD(SD), rat, 2.1 ug
measure name: Cmax (ng/mL)
# output: bare number, implied unit ng/mL

Qu. Endpoint output: Cmax of `COCCc1ccc(NC(=O)c2ccccc2NS(C)(=O)=O)cc1` . Value?
Ans. 13.8

====

experiment: in vivo; parameters: species or system Crl:CD(SD) rat; conditions: female, Crl:CD(SD), rat, iv, 0.75 mg/kg, t1/2
measure name: half-life

Qu. Endpoint output: half-life of `COCCc1ccc(NC(=O)c2ccccc2NS(C)(=O)=O)cc1` . Value?
Ans. 35.4 min

====

assay: Intra-articular acute toxicity study in the Beagle dog (toxicokinetics); conditions: male, beagle, dog, plasma, 35 μg/knee, AUC0-t, male dogs, single IA 35 μg/knee, individual animals 41M, 42M
measure name: AUC(0-t)

Qu. Endpoint output: AUC(0-t) of `COCCc1ccc(NC(=O)c2ccccc2NS(C)(=O)=O)cc1` . Value?
Ans. 5.21 ng·h/mL

====

assay: in vivo; settings: male, beagle, dog, iv
measure name: clearance

Qu. Endpoint output: clearance of COCCc1ccc(NC(=O)c2ccccc2NS(C)(=O)=O)cc1 [Compound A] . Value?
Ans. 7.25 to 11.4 mL/min/kg

====

assay: in vivo; details: male, beagle, dog, iv
measure name: Vd

Qu. Endpoint output: Vd of COCCc1ccc(NC(=O)c2ccccc2NS(C)(=O)=O)cc1 [Compound A] . Value?
Ans. 0.44 to 0.692 L/kg

====

assay: Intra-articular acute toxicity study in the Beagle dog (toxicokinetics); conditions: male, beagle, dog, plasma, 100 μg/knee, Cmax, male dogs, single IA 100 μg/knee, individual animals 43M, 44M
measure name: Cmax (ng/mL)
# output: bare number, implied unit ng/mL

Qu. Endpoint output: Cmax of COCCc1ccc(NC(=O)c2ccccc2NS(C)(=O)=O)cc1 [Compound A] . Value?
Ans. 4.43

====

test: in vivo; design: species or system Crl:CD(SD) rat; conditions: male, Crl:CD(SD), rat, iv, 0.25 mg/kg, AUC0-t
measure name: AUC(0-t) (ng·h/mL)
# output: bare number, implied unit ng·h/mL

Qu. Endpoint output: AUC(0-t) of `COCCc1ccc(NC(=O)c2ccccc2NS(C)(=O)=O)cc1` . Value?
Ans. 657

====

experiment: Intra-articular acute toxicity study in the Beagle dog (toxicokinetics); conditions: male, beagle, dog, plasma, 100 μg/knee, Cmax, male dogs, single IA 100 μg/knee, Mean
measure name: Cmax
Give the figure together with its unit, number first.

Qu. Endpoint output: Cmax of `COCCc1ccc(NC(=O)c2ccccc2NS(C)(=O)=O)cc1` . Value?
Ans. 4.59 ng/mL

====

experiment: in vivo; parameters: species or system Crl:CD(SD) rat; details: male, Crl:CD(SD), rat, iv, 0.75 mg/kg, t1/2
measure name: half-life (min)
# output: bare number, implied unit min

Qu. Endpoint output: half-life of `COCCc1ccc(NC(=O)c2ccccc2NS(C)(=O)=O)cc1` . Value?
Ans. 37.8

====

test: Intravenous acute toxicity study in Crl:CD(SD) rat (toxicokinetics); type: in vivo; details: Crl:CD(SD), rat, plasma; male rats, single IV 1 mg/kg, mean
measure name: half-life (min)
# output: bare number, implied unit min

Qu. Endpoint output: half-life of COCCc1ccc(NC(=O)c2ccccc2NS(C)(=O)=O)cc1 [Compound A] . Value?
Ans. 22.2

====

assay: in vivo; conditions: male, Crl:CD(SD), rat, 140 ug/kg, AUC0-t
measure name: AUC(0-t) (µg·h/mL)
# output: bare number, implied unit µg·h/mL

Qu. Endpoint output: AUC(0-t) of `COCCc1ccc(NC(=O)c2ccccc2NS(C)(=O)=O)cc1` . Value?
Ans. 0.0154

====

assay: in vivo; conditions: male, Crl:CD(SD), rat, 70 ug/kg, AUC0-t
measure name: AUC(0-t) (ng·h/mL)
# output: bare number, implied unit ng·h/mL

Qu. Endpoint output: AUC(0-t) of `COCCc1ccc(NC(=O)c2ccccc2NS(C)(=O)=O)cc1` . Value?
Ans. 8.33
